Data provenance: PubChem BioAssay (NCI)

- Test system: MDA-MB-468 breast
- ASSAY_EXPLANATION: NCI-60 one-dose screen, 48 h
- EXPERIMENTAL_PARAMETERS: 10 µM unless noted
This is part of a sample that, as a whole, favours compounds with a hit. Of some 83,000 tested, about 20% had one in any assay. Active and inactive are the calls of the source. How the source made its calls: active means growth percent below 10; inactive means the rest.
Classes used: active, inactive

N=c1c(C(=O)OCc2ccccc2)ncc(CCl)n1O : inactive
CCOC(=O)NCCCC(=O)NCCc1ccccc1 : inactive
COc1cc(/C=C2\C(=O)Nc3ccc(Br)cc32)cc(OC)c1OC : inactive
COc1ccc(/C=C2\CCCC3=C2N=C2SC(C)=NN2C3c2ccc(OC)c(OC)c2)cc1OC (centres undefined) : inactive
CCO/C=N/C1=C(C#N)C(c2ccc(Cl)cc2)c2sc3c(F)cccc3c2O1 (centres undefined) : inactive
O=C(/C=C/c1cn(-c2ccccc2)nc1-c1ccc(Cl)cc1)c1ccc(F)cc1 : inactive
CN(C)CCC(CCN(C)C)(C(=O)O)c1ccccc1 : inactive
CCSc1ccc(C2C(Br)C(=O)N2c2cc(OC)c(OC)c(OC)c2)cc1 (centres undefined) : inactive
COc1ccc(-c2nn(-c3cccc(Cl)c3)cc2C2CC(c3ccccc3)=NN2C(C)=O)cc1 (centres undefined) : inactive
Oc1ccc(Br)cc1Sc1cc(Br)ccc1O : inactive
O=C(NNC(=S)Nc1ccccc1)c1cc2ccc1CCc1ccc(cc1)CC2 : inactive
Cc1[nH]nc2ccc(-c3nc4cnc(N5CCN(C)CC5)cn4c3Nc3ccc(F)cc3Br)cc12 : inactive
O=C(O)c1cn(C2CC2)c2cc(N3CCN(Cc4cc(Cl)ccc4O)CC3)c(F)cc2c1=O : inactive
CCOC(=O)c1cccnc1Nc1ccc(NC(=O)Nc2ccc(Cl)c(C(F)(F)F)c2)cc1 : inactive
CCCCn1c(=O)c(/C=C/C(=O)/C=C/c2ccc(OC)cc2)cc2cc(Cl)ccc21 : inactive
COc1ccc(NC(=O)c2cc(OC)c(OC)c(OC)c2)cc1O : inactive
CSc1nc(Nc2cccc(NC(=O)/C(C#N)=C/c3c(Cl)cccc3Cl)c2)c(C#N)c(-c2cccc([N+](=O)[O-])c2)n1 : inactive
Clc1ccc2c(c1)c(-c1ccccc1)nc1nncn12 : inactive
c1ccc2c(c1)Oc1ccccc1C2C1c2ccccc2Oc2ccccc21 : inactive
CCCCCCNC(=O)Oc1ccc(/C(=C(\C)c2ccccc2)c2ccc(OCCN3CCCCC3)cc2)cc1 : inactive
O=C1/C(=C/c2ccc([N+](=O)[O-])o2)Oc2ccc(Cl)cc21 : active
Cn1ccnc1C(=O)/C=C/c1ccc(NC(=O)Nc2ccccc2)cc1 : active
O=C(Nc1ccc2c(c1)OCO2)C(=O)c1c[nH]c2cc(F)ccc12 : inactive
Cc1ccc(NC(=O)Cn2nncc2CN2C(=O)CSC2=O)cc1C : inactive
CCN1C(=O)/C(=C/C(=O)OC)S/C1=N\NC(=O)c1cc2ccc1/C=C\c1ccc(cc1)/C=C\2 : inactive
COc1cc(C(=O)N/N=C/c2ccc(N(C)C)cc2)cc(OC)c1OC : active
CN1CCN(c2ccc(Nc3nc(NCCCNS(=O)(=O)c4ccc(Cl)cc4)c4sccc4n3)cc2)CC1 : active
Nc1ccc(CC[C@H]2CCC/C=C/[C@@H]3C[C@H](O)C[C@H]3[C@H](O)/C=C/C(=O)O2)cc1 : active
C(=N\Nc1ncc(-c2cc3cc4c(cc3o2)OCO4)s1)/c1ccco1 : inactive
O=C1C(Cl)=C(Cl)C(Cl)(Cl)C(Cl)C1(Cl)Cl (centres undefined) : inactive
CCCCNc1nnc2n(Cc3ccccc3)c(=O)c3c4c(sc3n12)CCCC4 : inactive
C=C1C(=O)O[C@H]2[C@H]1CC/C(COC(=O)NCCCCCCCCNC(=O)OC/C1=C/CC[C@@]3(C)O[C@H]3[C@H]3OC(=O)C(=C)[C@@H]3CC1)=C\CC[C@@]1(C)O[C@@H]21 : active
CCN1CCN(C(=O)[C@@]2(C)CC[C@]3(C)CC[C@]4(C)C(=CC(=O)[C@@H]5[C@@]6(C)CC[C@H](OC7C[C@@H](O)[C@@H](O)C(C)O7)C(C)(C)[C@@H]6CC[C@]54C)[C@@H]3C2)CC1 (some centres undefined) : inactive
O=C1Nc2ccccc2/C1=C/c1cccn1CCCCCCn1c2ccccc2c(=O)c2ccccc21 : active
Oc1ccccc1-c1nnc(SCc2ccc(O)c3ncccc23)n1-c1ccccc1 : active
Nc1n[nH]c2cccc(C#Cc3cccc(C(=O)Nc4cccc(C(F)(F)F)c4)c3)c12 : inactive
COc1cccc(NC(=O)c2sc3nc4c(cc3c2N)CCCC4)c1 : active
O=C(Nc1cccc(NC(=O)C2CCCCC2)c1)c1ccccn1 : inactive
CCNCCNc1c(C)c(-c2ccc(C(F)(F)F)cc2)c(C#N)c2nc3ccccc3n12 : inactive
